Tested on: compound 48/80-induced lethality
Experiment: Protection of rats from compound 48/80-induced lethality
Type: in vivo, rat (male, inbred Wistar strain)
Settings: Rattus norvegicus, 4 h, read-out: compound 48/80 lethality test in rats-ED50, dose protecting 50% of animals; subcutaneous or oral, 1 h before compound 48/80 0.5 mg/kg i.v.; survival after 4 h
Protocol: Protection of rats from compound 48/80-induced lethality. The protection from compound 48/80-induced lethal circulatory collapse appears to be a simple way of evaluating quantitatively the antihistaminic activity of test compounds. Male rats of an inbred Wistar strain, weighing 240-260 g were used in the experiment. After overnight starvation the rats were transferred to conditioned laboratories (temp.=21±1° C., relative humidity=65±5%). […]
QUANTITY_MEASURED: ED50 (mg/kg)
Numeric answer only, unit mg/kg assumed.

// below: answered molecules
Fc1ccc(Cn2c(NC3CCN(CCOc4nccs4)CC3)nc3ccccc32)cc1 ... 0.08
Cn1c(C(=O)NCCN2CCC(Nc3nc4ccccc4n3Cc3ccc(F)cc3)CC2)cc2ccccc21 ... 0.16
c1coc(Cn2c(NC3CCN(CCNc4nccs4)CC3)nc3cccnc32)c1 ... 0.01

Q) Value lookup for ED50; key = `Fc1ccc(Cn2c(NC3CCN(CCCNc4nccs4)CC3)nc3ccccc32)cc1`
A) 0.16

Q) Quick check: ED50 of `Fc1ccccc1Cn1c(NC2CCN(CCNc3nccs3)CC2)nc2ccccc21` ?
A) 0.08

Q) Name the reported ED50 value associated with the molecule `CCc1nnc(NCCN2CCC(Nc3nc4ccccc4n3Cc3ccc(F)cc3)CC2)s1`
A) 0.16

###

test system: compound 48/80-induced lethality; assay: Protection of rats from compound 48/80-induced lethality; format: in vivo, rat (male, inbred Wistar strain); details: Rattus norvegicus, 4 h, read-out: compound 48/80 lethality test in rats-ED50, dose protecting 50% of animals; subcutaneous or oral, 1 h before compound 48/80 0.5 mg/kg i.v.; survival after 4 h
Where a name gives a salt, the structure may show the parent alone.
QUANTITY_MEASURED: ED50 (mg/kg)
// note: answer is a bare numeric in mg/kg

Record excerpt, results attached:
O=C(Cc1c[nH]c2ccccc12)NCCN1CCC(Nc2nc3ccccc3n2Cc2ccc(F)cc2)CC1 [Compound 77] ... 0.16
Fc1ccc(Cn2c(NC3CCN(CCNc4nc5ccccc5s4)CC3)nc3ccccc32)cc1 [Compound 19] ... 0.31
Fc1ccc(Cn2c(NC3CCN(CCc4csc(-c5ccccc5)n4)CC3)nc3ccccc32)cc1 [Compound 92, dihydrochloride monohydrate] ... 0.63

Q) Reported ED50 for c1coc(Cn2c(NC3CCN(CCNc4nccs4)CC3)nc3ccccc32)c1 [Compound 48] : what is it?
A) 0.08

Q) Using the record for Fc1ccc(Cn2c(NC3CCN(CCCCCNc4nccs4)CC3)nc3ccccc32)cc1 [Compound 21] , report its ED50.
A) 0.16

Q) Reported ED50 for Fc1ccc(Cn2c(NC3CCN(CCCCNc4nccs4)CC3)nc3ccccc32)cc1 [Compound 53] : what is it?
A) 0.31

Q) Report ED50 for CCOC(=O)N(CCN1CCC(Nc2nc3ccccc3n2Cc2ccc(F)cc2)CC1)c1nccs1 [Compound 101] please.
A) 0.31

Q) // lookup ED50 for CCn1nnnc1OCCN1CCC(Nc2nc3ccccc3n2Cc2ccc(F)cc2)CC1 [Compound 10]
A) 0.04

###

tested on: compound 48/80-induced lethality; test: Protection of rats from compound 48/80-induced lethality; type: in vivo, rat (male, inbred Wistar strain); details: Rattus norvegicus, 4 h, read-out: compound 48/80 lethality test in rats-ED50, dose protecting 50% of animals; subcutaneous or oral, 1 h before compound 48/80 0.5 mg/kg i.v.; survival after 4 h
Entries and their measured ED50 follow.
Quick note: give the figure in mg/kg, leave out the unit.

Cc1ccc(Cn2c(NC3CCN(CCNc4nccs4)CC3)nc3ccccc32)cc1 ... 0.16
CNc1nc(CCN2CCC(Nc3nc4ccccc4n3Cc3ccc(F)cc3)CC2)cs1 ... 0.16
c1ccc(Cn2c(NC3CCN(CCNc4nccs4)CC3)nc3cccnc32)nc1 ... 0.005
c1ccc(Cn2c(NC3CCN(CCNc4nccs4)CC3)nc3ccccc32)nc1 ... 0.04
Cn1ccnc1SCCN1CCC(Nc2nc3ccccc3n2Cc2ccc(F)cc2)CC1 ... 0.08

Here is another compound to look at.
Q) Return reported ED50; argument: `Cn1cnc([N+](=O)[O-])c1NCCN1CCC(Nc2nc3ccccc3n2Cc2ccc(F)cc2)CC1`
A) 0.31

###

system: compound 48/80-induced lethality; experiment: Protection of rats from compound 48/80-induced lethality; format: in vivo, rat (male, inbred Wistar strain); details: Rattus norvegicus, 4 h, read-out: compound 48/80 lethality test in rats-ED50, dose protecting 50% of animals; subcutaneous or oral, 1 h before compound 48/80 0.5 mg/kg i.v.; survival after 4 h
Please assign 0.0 whenever ED50 is at or above 0.08 mg/kg, and 1.0 whenever it is below.

# count of solved cases: 5
Cc1nnc(NCCN2CCC(Nc3nc4ccccc4n3Cc3ccc(F)cc3)CC2)s1 [Compound 15] ... 1.0
CNC(=S)N(CCN1CCC(Nc2nc3ccccc3n2Cc2ccc(F)cc2)CC1)c1nccs1 [Compound 104] ... 0.0
CC(C)n1ccnc1NCCN1CCC(Nc2nc3ccccc3n2Cc2ccc(F)cc2)CC1.O [Compound 81] ... 1.0
Fc1ccc(Cn2c(NC3CCN(CCNc4nc(-c5ccccn5)cs4)CC3)nc3ccccc32)cc1 [Compound 87] ... 0.0
Nc1nnc(NCCN2CCC(Nc3nc4ccccc4n3Cc3ccc(F)cc3)CC2)s1 [Compound 18] ... 1.0

Q) # TODO verify ED50 < 0.08 mg/kg strictly for this molecule: Fc1ccc(Cn2c(NC3CCN(Cc4nc5ccccc5[nH]4)CC3)nc3ccccc32)cc1.O [Compound 2]
A) 0.0
